FYI, the data here is from patent US20210380703A1.

Target Under Test: Mouse ACVR2A (mouse, UniProt P27038 20-135, limits assumed); also: test concentration or dose not given here
Sequence (P27038 20-135 limits assumed): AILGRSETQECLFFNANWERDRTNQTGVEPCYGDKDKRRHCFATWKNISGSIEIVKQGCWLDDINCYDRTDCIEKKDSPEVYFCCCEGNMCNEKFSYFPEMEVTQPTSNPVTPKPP
Method Notes: ELISA
Measurement Type: optical density (OD)

376_G05 (antibody, V domains shown, VH/VL only) VH: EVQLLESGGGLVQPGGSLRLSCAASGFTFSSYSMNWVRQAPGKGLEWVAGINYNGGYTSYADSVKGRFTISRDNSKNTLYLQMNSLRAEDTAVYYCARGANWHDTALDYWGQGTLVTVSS VL: DIQMTQSPSSLSASVGDRVTITCRASQSIISYVNWYQQKPGKAPKLVIYAATSRASGVPSRFSGSGSGTDFTLTISSLQPEDFATYYCQQSYESPLTFGGGTKVEIK; 3.77
365_E09 (antibody, V domains shown, VH/VL only) VH: EVQLLESGGGLVQPGGSLRLSCAASGFTFSSYGMHWVRQAPGKGLEWVASINYNSGYKSYADSVKGRFTISRDNSKNTLYLQMNSLRAEDTAVYYCARSANWHDTALDYWGQGTLVTVSS VL: DIQMTQSPSSLSASVGDRVTITCRASQSILTYVNWYQQKPGKAPKLVIYAATSRASGVPSRFSGSGSGTDFTLTISSLQPEDFATYYCQQSDDSPLTFGGGTKVEIK; 2.16
